- System: Panel NCI-60 (60 carcinoma cell lines)
- PROTOCOL_DESCRIPTION: In vitro mean of concentrations that inhibits cell growth across 60 cell lines of the NCI panel after incubation for 48 hr at 37 degree C was measured using SRB assay
- Format: functional
- MEASUREMENT_CONTEXT: Homo sapiens
QUANTITY_KIND: GI50 (µM)
Respond with the bare value in µM.

Some compounds with known GI50 results, for comparison:
COc1cc2c(cc1OC)C(=O)N1C=C(c3cccs3)C[C@H]1C=N2; 0.02
COc1cc2c(cc1OC)C(=O)N1C=CC[C@H]1C=N2; 1.28

Ask: What does the data say about its GI50? Entry: `C=CC1=CN2C(=O)c3cc(OC)c(OC)cc3N=C[C@@H]2C1`
Reply: 0.12

Ask: // same read-out, input: `COc1cc2c(cc1OC)C(=O)N1CCC[C@H]1C=N2`
Reply: 2.39

The values you see were collected from ChEMBL document CHEMBL1137887.
